The measurements presented in this section are drawn from patent US20250085285A1.

Molecular target: HP1α-chromatin condensates (Homo sapiens)
Construct: 6x-His (cleaved yes); made in house; host or cells: E. coli Rosetta BL21 (DE3)
Sequence (P45973 whole entry): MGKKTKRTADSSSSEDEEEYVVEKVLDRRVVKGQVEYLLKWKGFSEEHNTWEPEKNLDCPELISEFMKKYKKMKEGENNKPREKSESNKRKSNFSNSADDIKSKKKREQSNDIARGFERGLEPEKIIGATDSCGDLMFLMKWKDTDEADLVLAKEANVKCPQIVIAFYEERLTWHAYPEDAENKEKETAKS
Experiment: HP1α-chromatin condensate in vitro droplet assay / screening (fluorescence imaging)
Assay type: biochemical
Conditions: FIG. 7; Bioactive compound library (Selleck Chemicals), final concentration of 10 μM; H3K9me3 nucleosome arrays
assayReadout: Effect of bioactive small molecules on HP1α-chromatin condensates

| compound | result |
| --- | --- |
| CC(c1cc2ccccc2s1)N(O)C(N)=O (centres unmarked) | dissolve condensates |
| CN(C)CCN1C(=O)c2cccc3cc(N)cc(c23)C1=O [Amonifide] | dissolve condensates |
